- TARGET OR SYSTEM: melanocortin-3 receptor (human, UniProt P41968 1-323)
- Sequence (P41968 whole entry): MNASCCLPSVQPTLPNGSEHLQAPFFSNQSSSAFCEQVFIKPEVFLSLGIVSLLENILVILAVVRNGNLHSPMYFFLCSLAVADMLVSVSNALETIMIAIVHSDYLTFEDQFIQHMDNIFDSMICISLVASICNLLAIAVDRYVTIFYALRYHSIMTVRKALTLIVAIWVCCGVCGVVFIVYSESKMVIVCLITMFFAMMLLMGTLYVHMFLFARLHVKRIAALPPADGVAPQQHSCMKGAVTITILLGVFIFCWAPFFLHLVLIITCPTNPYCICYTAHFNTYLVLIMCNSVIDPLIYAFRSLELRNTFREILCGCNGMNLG
- METHOD DESCRIPTION: cell-based or functional assay
Bridge positions count the residues as written; N and C are the ends. Square brackets hold non-standard residues; d marks the D form. dPhe(4-F) = N[C@H](Cc1ccc(F)cc1)C(=O)O; Pen = CC(C)(S)[C@H](N)C(=O)O; hCys = N[C@@H](CCS)C(=O)O
# thresholds on cAMP Assay (EC-50) define classes: low band: < 2 nM; middle band: ≥ 2 nM and < 10 nM; high band: ≥ 10 nM

Data request: Band for the recorded cAMP Assay (EC-50) of Ac-RC[dL]H[dF]RWC-NH2 (disulfide 2-8) [Compound 1: Ac-Arg-cyclo[Cys-D-Leu-His-D-Phe-Arg-Trp-Cys]-NH2] ?
Data returned: low band

Data request: Band for the recorded cAMP Assay (EC-50) of Ac-RC[dA]N[dF]RWC-NH2 (disulfide 2-8; SMILES CC(=O)N[C@@H](CCCNC(=N)N)C(=O)N[C@H]1CSSC[C@@H](C(N)=O)NC(=O)[C@H](Cc2c[nH]c3ccccc23)NC(=O)[C@H](CCCNC(=N)N)NC(=O)[C@@H](Cc2ccccc2)NC(=O)[C@H](CC(N)=O)NC(=O)[C@@H](C)NC1=O) [Compound 9: Ac-Arg-cyclo[Cys-D-Ala-Asn-D-Phe-Arg-Trp-Cys]-NH2] ?
Data returned: high band

Data request: Band for the recorded cAMP Assay (EC-50) of Ac-R[hCys][dA][dF]RW[Pen]-NH2 (disulfide 2-7; SMILES CC(=O)N[C@@H](CCCNC(=N)N)C(=O)N[C@H]1CCSSC(C)(C)[C@@H](C(N)=O)NC(=O)[C@H](Cc2c[nH]c3ccccc23)NC(=O)[C@H](CCCNC(=N)N)NC(=O)[C@@H](Cc2ccccc2)NC(=O)[C@@H](C)NC1=O) [Compound 17: Ac-Arg-cyclo[hCys-D-Ala-D-Phe-Arg-Trp-Pen]-NH2] ?
Data returned: high band

Data request: Band for the recorded cAMP Assay (EC-50) of Ac-RC[dI]H[dF]RWC-NH2 (disulfide 2-8) [Compound 2: Ac-Arg-cyclo[Cys-D-Ile-His-D-Phe-Arg-Trp-Cys]-NH2] ?
Data returned: low band

Data request: Band for the recorded cAMP Assay (EC-50) of Ac-RC[dA]P[dPhe(4-F)]RWC-NH2 (disulfide 2-8; SMILES CC(=O)N[C@@H](CCCNC(=N)N)C(=O)N[C@H]1CSSC[C@@H](C(N)=O)NC(=O)[C@H](Cc2c[nH]c3ccccc23)NC(=O)[C@H](CCCNC(=N)N)NC(=O)[C@@H](Cc2ccc(F)cc2)NC(=O)[C@@H]2CCCN2C(=O)[C@@H](C)NC1=O) [Compound 14: Ac-Arg-cyclo[Cys-D-Ala-Pro-D-Phe(p-F)-Arg-Trp-Cys]-NH2] ?
Data returned: high band

Data request: Band for the recorded cAMP Assay (EC-50) of Ac-RC[dA]W[dF]RWC-NH2 (disulfide 2-8; SMILES CC(=O)N[C@@H](CCCNC(=N)N)C(=O)N[C@H]1CSSC[C@@H](C(N)=O)NC(=O)[C@H](Cc2c[nH]c3ccccc23)NC(=O)[C@H](CCCNC(=N)N)NC(=O)[C@@H](Cc2ccccc2)NC(=O)[C@H](Cc2c[nH]c3ccccc23)NC(=O)[C@@H](C)NC1=O) [Compound 7: Ac-Arg-cyclo[Cys-D-Ala-Trp-D-Phe-Arg-Trp-Cys]-NH2] ?
Data returned: high band

Data request: Band for the recorded cAMP Assay (EC-50) of Ac-R[hCys]A[dF]RWC-NH2 (disulfide 2-7; SMILES CC(=O)N[C@@H](CCCNC(=N)N)C(=O)N[C@H]1CCSSC[C@@H](C(N)=O)NC(=O)[C@H](Cc2c[nH]c3ccccc23)NC(=O)[C@H](CCCNC(=N)N)NC(=O)[C@@H](Cc2ccccc2)NC(=O)[C@H](C)NC1=O) [Compound 15: Ac-Arg-cyclo[hCys-Ala-D-Phe-Arg-Trp-Cys]-NH2] ?
Data returned: low band

Data request: Band for the recorded cAMP Assay (EC-50) of Ac-RC[dV]H[dF]RWC-NH2 (disulfide 2-8) [Compound 4: Ac-Arg-cyclo[Cys-D-Val-His-D-Phe-Arg-Trp-Cys]-NH2] ?
Data returned: low band

Data request: Band for the recorded cAMP Assay (EC-50) of Ac-RC[dA][His(3-Me)][dF]RWC-NH2 (disulfide 2-8) [Compound 5: Ac-Arg-cyclo[Cys-D-Ala-His(3-Me)-D-Phe-Arg-Trp-Cys]-NH2] ?
Data returned: high band

Data request: Band for the recorded cAMP Assay (EC-50) of Ac-RC[dA]Y[dF]RWC-NH2 (disulfide 2-8; SMILES CC(=O)N[C@@H](CCCNC(=N)N)C(=O)N[C@H]1CSSC[C@@H](C(N)=O)NC(=O)[C@H](Cc2c[nH]c3ccccc23)NC(=O)[C@H](CCCNC(=N)N)NC(=O)[C@@H](Cc2ccccc2)NC(=O)[C@H](Cc2ccc(O)cc2)NC(=O)[C@@H](C)NC1=O) [Compound 11: Ac-Arg-cyclo[Cys-D-Ala-Tyr-D-Phe-Arg-Trp-Cys]-NH2] ?
Data returned: high band

Data request: Band for the recorded cAMP Assay (EC-50) of Ac-RC[dA]Q[dF]RWC-NH2 (disulfide 2-8; SMILES CC(=O)N[C@@H](CCCNC(=N)N)C(=O)N[C@H]1CSSC[C@@H](C(N)=O)NC(=O)[C@H](Cc2c[nH]c3ccccc23)NC(=O)[C@H](CCCNC(=N)N)NC(=O)[C@@H](Cc2ccccc2)NC(=O)[C@H](CCC(N)=O)NC(=O)[C@@H](C)NC1=O) [Compound 8: Ac-Arg-cyclo[Cys-D-Ala-Gln-D-Phe-Arg-Trp-Cys]-NH2] ?
Data returned: middle band

Data request: Band for the recorded cAMP Assay (EC-50) of Ac-RC[dA][His(1-Me)][dF]RWC-NH2 (disulfide 2-8) [Compound 6: Ac-Arg-cyclo[Cys-D-Ala-His(1-Me)-D-Phe-Arg-Trp-Cys]-NH2] ?
Data returned: middle band

FYI, the data here is from patent US20160022764A1.
